# Tested on: PC-3 prostate
# PROTOCOL TEXT: NCI tumour cell line growth inhibition, 48 h
TGI overview

Sample answers from the record:
[
  {
    "COMPOUND": "C=C1CCC2C3(C)COC(c4cccc(Cl)c4)OC3CCC2(C)C1/C=C/C1=CCOC1=O (stereo not drawn)",
    "TGI": "> 100 µM"
  },
  {
    "COMPOUND": "Cc1ccc(CCCC(=O)O)cc1C",
    "TGI": "> 100 µM"
  },
  {
    "COMPOUND": "C/C(O)=C/c1nc2sc(C)c(C)c2c(=O)s1",
    "TGI": "69.5 µM"
  },
  {
    "COMPOUND": "Cn1cc(-c2ccc3c(c2)ncn3-c2ccc(CC(=O)Nc3cc(C(C)(C)C)on3)cc2)cn1",
    "TGI": "> 74.7 µM"
  },
  {
    "COMPOUND": "CCCCC[C@H]1CC=CC(=O)O1",
    "TGI": "69.3 µM"
  },
  {
    "COMPOUND": "COc1ccc(C(c2ccccc2)N2C(=O)CCC2C(=O)O)cc1OC (stereo not drawn)",
    "TGI": "> 100 µM"
  }
]

Please give the documented TGI of NCCCNCCCNc1nc2ccccc2c2[nH]c3ccccc3c12 2.14 µM

Please give the documented TGI of O=C1c2cc([N+](=O)[O-])cnc2S(=O)(=O)N1c1ccc(Oc2ccccc2)cc1 > 100 µM

Please give the documented TGI of COc1cc(/C=C2\N=C(c3ccccc3)N(/N=C/c3cc4cc(C)ccc4nc3Cl)C2=O)ccc1O 50.1 µM

Please give the documented TGI of COC(=O)C(NC(=O)C12CCC(C)(C(=O)O1)C2(C)C)c1cc(C(C)(C)C)c(O)c(C(C)(C)C)c1 (stereo not drawn) > 100 µM

====

# System: HOP-62 NSCLC
# PROTOCOL TEXT: NCI tumour cell line growth inhibition, 48 h
OBSERVABLE: TGI

[
  {
    "MOLECULE": "CCN1C(=O)N(CC)C2C1NN=c1s/c(=C\\c3ccc([N+](=O)[O-])cc3)c(=O)n12 (stereo not given)",
    "SYSTEM": "HOP-62 NSCLC",
    "RECORDED RESULT": "> 59.8 µM"
  },
  {
    "MOLECULE": "CC1(C)CCC(CN2CCN(c3ccc(C(=O)NS(=O)(=O)c4ccc(NCC5CCOCC5)c([N+](=O)[O-])c4)c(Oc4cnc5[nH]ccc5c4)c3)CC2)=C(c2ccc(Cl)cc2)C1",
    "SYSTEM": "HOP-62 NSCLC",
    "RECORDED RESULT": "15.8 µM"
  },
  {
    "MOLECULE": "CC(=O)Nc1ccc2c(c1)C(=Nc1ccc(C(=O)O)cc1)c1ccccc1-2",
    "SYSTEM": "HOP-62 NSCLC",
    "RECORDED RESULT": "> 100 µM"
  },
  {
    "MOLECULE": "CCOC(=O)c1cc(NC(=O)c2ccccc2)c(=O)n2c(cc3c(Cl)cccc32)c1O",
    "SYSTEM": "HOP-62 NSCLC",
    "RECORDED RESULT": "> 100 µM"
  }
]

Pending molecule:
Please give the documented TGI of COc1ccc(Nc2nc3c(N)cc(C(F)(F)F)cc3nc2-c2ccccc2)cc1 > 100 µM

====

# Test system: NCI-H522 lung
# PROTOCOL TEXT: NCI tumour cell line growth inhibition, 48 h
OBSERVABLE: TGI (µM)
Numbers only here, please. The scale is µM.

[
  {
    "CHEM SMILES": "CC[n+]1c(/C=C/c2ccc(N(CCCl)CCCl)cc2)ccc2cc(Br)ccc21",
    "UNIT DESCRIPTOR": "µM",
    "RECORDED RESULT": 4.66
  }
]

Please give the documented TGI of COc1ccc(N=C/C=C/C(=C/COC(C)=O)OC(C)=O)cc1 30.4

====

GI50 overview
# Test system: DU-145 prostate
# PROTOCOL TEXT: NCI tumour cell line growth inhibition, 48 h

Sample answers from the record:
[
  {
    "COMPOUND": "N=C(N)c1ccc(-c2ccc(-c3ccccc3)o2)cc1",
    "GI50": "2720 nM"
  },
  {
    "COMPOUND": "Nc1nccc(C#Cc2cncnc2Nc2ccc(OCc3cccc(F)c3)c(Cl)c2)n1",
    "GI50": "4370 nM"
  },
  {
    "COMPOUND": "CN(C)c1ccc(N=C(C#N)c2nc(N)nc(N3CCOCC3)n2)cc1",
    "GI50": "49800 nM"
  },
  {
    "COMPOUND": "Cc1ccc2c(c1)/C(=N\\N=C/c1cn(C(C)C)c3ccccc13)C(=O)N2",
    "GI50": "8170 nM"
  }
]

Please give the documented GI50 of COc1cc2nc(-c3ccc(Cl)cc3)cc(OCCCN3CCC(O)CC3)c2cc1OC 2780 nM

Please give the documented GI50 of O=[N+]([O-])c1ccc([I+]c2ccccc2)cc1 2250 nM

Please give the documented GI50 of Cn1cccc1C1CC(=O)N(CCC[Se]C#N)C1=O (centres undefined) 1810 nM

Please give the documented GI50 of CCCCCCCCCCCCCCCc1ccc(C(=O)C[n+]2ccccc2)cc1 1200 nM

Please give the documented GI50 of c1ccc(CNc2nc(Nc3ccc(-c4nc5ccccc5[nH]4)cc3)c3cn[nH]c3n2)cc1 3330 nM

====

# System: SNB-19 CNS
# PROTOCOL TEXT: NCI tumour cell line growth inhibition, 48 h
TGI overview

Sample answers from the record:
[
  {
    "COMPOUND": "CC(C)Cn1cnnc1NS(=O)(=O)c1cc(C(=O)NN)c(Cl)cc1S",
    "SYSTEM": "SNB-19 CNS",
    "RECORDED RESULT": "> 10 µM"
  },
  {
    "COMPOUND": "CC1(c2nc3ccccc3[nH]2)CCC(CO)C(C)(C)O1 (stereo not given)",
    "SYSTEM": "SNB-19 CNS",
    "RECORDED RESULT": "> 100 µM"
  },
  {
    "COMPOUND": "CC(=O)NC1C(OCc2ccccc2)OC(CO)C(O)C1OCC(=O)NC(C)C(=O)NC(CCC(=O)Nc1ccc2c(c1)CN1C(=O)c3ccccc3C1=N2)C(N)=O (stereo not given)",
    "SYSTEM": "SNB-19 CNS",
    "RECORDED RESULT": "> 100 µM"
  },
  {
    "COMPOUND": "O=Cc1cc(O)ccc1Br",
    "SYSTEM": "SNB-19 CNS",
    "RECORDED RESULT": "> 100 µM"
  },
  {
    "COMPOUND": "Nc1ncn([C@@H]2C=C(CO)C(O)C2O)c(=O)n1 (stereo not given in full)",
    "SYSTEM": "SNB-19 CNS",
    "RECORDED RESULT": "> 100 µM"
  }
]

Please give the documented TGI of Cc1ccc2c(c1)C(=O)c1ccc(C)nc1C2=O 63.6 µM

====

# Tested on: OVCAR-4 ovarian
# PROTOCOL TEXT: NCI tumour cell line growth inhibition, 48 h
OBSERVABLE: TGI

Sample answers from the record:
[
  {
    "MOLECULE": "C[C@@H](Oc1cc(-n2cnc3ccc(OCC4CCN(C)CC4)cc32)sc1C(N)=O)c1ccccc1C(F)(F)F",
    "RECORDED RESULT": "4.69 µM"
  },
  {
    "MOLECULE": "Cn1cc(-c2nonc2-c2cn(C)c3ccc(Br)cc23)c2ccccc21",
    "RECORDED RESULT": "> 100 µM"
  },
  {
    "MOLECULE": "O=C(c1no[n+]([O-])c1C(=O)c1csc2ccccc12)c1csc2ccccc12",
    "RECORDED RESULT": "7.3 µM"
  },
  {
    "MOLECULE": "O=C1C2=Cc3ccccc3CCN2c2ccc([N+](=O)[O-])cc21",
    "RECORDED RESULT": "> 100 µM"
  },
  {
    "MOLECULE": "O=C(O)c1ccccc1/C=C1\\Cc2ccc3c(c2C1=O)CCCC3",
    "RECORDED RESULT": "> 100 µM"
  }
]

Please give the documented TGI of CC(C)Cn1cnnc1NS(=O)(=O)c1cc(C(=O)NN)c(Cl)cc1S > 10 µM

Please give the documented TGI of Cc1c(/C=N\NC(=S)N(C)CCN(C)C(=S)N/N=C\c2c(C)n(C)n(-c3ccccc3)c2=O)c(=O)n(-c2ccccc2)n1C > 100 µM

Please give the documented TGI of Nc1cc2c3c(cccc3c1)C(=O)N(CCN1CCN(CCN3C(=O)c4cccc5cc(N)cc(c45)C3=O)CC1)C2=O > 100 µM

Please give the documented TGI of COc1ccccc1NS(=O)(=O)c1cc(C(C)(C)C)ccc1OCCOc1ccc(C(C)(C)C)cc1S(=O)(=O)Nc1ccccc1OC > 100 µM

Please give the documented TGI of CCN(CC)CCSc1nc2c([N+](=O)[O-])cccc2[nH]1 > 100 µM

Please give the documented TGI of CCOC(=O)CC(=O)Nc1c(C(=O)OCC)sc2nc(SC)nc(Nc3ccc(OC)c(OC)c3)c12 > 100 µM

Please give the documented TGI of O=C1/C(=C\c2ccccc2)CN(C(=O)c2ccccc2F)C/C1=C\c1ccccc1 11.2 µM

Please give the documented TGI of CC(=O)NC1C(OCc2ccccc2)OC(CO)C(O)C1OCC(=O)NC(C)C(=O)NC(CCC(=O)Nc1ccc2c(c1)CN1C(=O)c3ccccc3C1=N2)C(N)=O (centres undefined) > 100 µM

Please give the documented TGI of O=Cc1cc(O)ccc1Br > 65.7 µM

Please give the documented TGI of C/C=C(\C)C(=O)O[C@@H]1C=CC(=O)O[C@H]1COC(=O)[C@H](C)O 31 µM

Please give the documented TGI of COc1ccc(C(c2ccccc2)N2C(=O)CCC2C(=O)O)cc1OC (centres undefined) > 100 µM

Please give the documented TGI of CCOC(=O)c1c(C)n(-c2ccc(C)cc2)c2c1cc(O)c1[nH]c3c(c12)CCCC3 51.3 µM

Please give the documented TGI of O=C(Nc1ccc(Cl)cc1)C(=O)C1=C(O)c2ccccc2OC1 > 100 µM

Please give the documented TGI of Brc1ccc(C2(N3CCCCC3)CCCCC2)s1 > 100 µM
